- tested_on: UniProtKB Q16539
- Sequence (Q16539 whole entry): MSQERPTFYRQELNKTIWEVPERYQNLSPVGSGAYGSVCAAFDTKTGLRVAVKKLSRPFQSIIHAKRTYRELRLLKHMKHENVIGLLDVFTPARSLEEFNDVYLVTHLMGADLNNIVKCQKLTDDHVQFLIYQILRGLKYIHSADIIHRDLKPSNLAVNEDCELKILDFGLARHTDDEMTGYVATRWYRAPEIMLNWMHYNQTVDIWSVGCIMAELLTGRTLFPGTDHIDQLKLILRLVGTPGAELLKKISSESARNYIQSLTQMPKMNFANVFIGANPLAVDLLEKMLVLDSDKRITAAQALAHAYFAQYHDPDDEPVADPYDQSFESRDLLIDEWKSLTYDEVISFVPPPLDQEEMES
- method_notes: Inhibition of p-38 (MAP) kinase, in vitro assay (33P transfer from γ-33P-ATP to Myelin Basic Protein)
- reported_conditions: phosphorylated recombinant p38 MAP kinase, MBP substrate, 30° C., read-out: IC50 (concentration causing 50% inhibition of the p-38 enzyme)
pIC50: −log10 of the molar value.
Decision: pIC50 >= 7 yields condition met, all other cases yield condition not met.

Completed entries (count: 3):
| record_smiles | classification |
| --- | --- |
| N#CCCCn1c(-c2ccncc2)c(-c2ccc(F)cc2)c2nccnc21 | condition not met |
| Fc1ccc(-c2c(-c3ccncc3)n(OCCN3CCOCC3)c3cccnc23)cc1 | condition not met |
| OCCNc1cc(-c2[nH]c3nccnc3c2-c2ccc(F)cc2)ccn1 | condition met |

Inquiry: Please check the record Fc1ccc(-c2c(-c3ccncc3)n(OCCN3CCCC3)c3cccnc23)cc1 and state if its pIC50 is at or above 7.
Reply text: condition not met
